# system-name: Short transient receptor potential channel 4 (Mus musculus) (UniProt Q9QUQ5)
# Sequence (Q9QUQ5 whole entry, looked up): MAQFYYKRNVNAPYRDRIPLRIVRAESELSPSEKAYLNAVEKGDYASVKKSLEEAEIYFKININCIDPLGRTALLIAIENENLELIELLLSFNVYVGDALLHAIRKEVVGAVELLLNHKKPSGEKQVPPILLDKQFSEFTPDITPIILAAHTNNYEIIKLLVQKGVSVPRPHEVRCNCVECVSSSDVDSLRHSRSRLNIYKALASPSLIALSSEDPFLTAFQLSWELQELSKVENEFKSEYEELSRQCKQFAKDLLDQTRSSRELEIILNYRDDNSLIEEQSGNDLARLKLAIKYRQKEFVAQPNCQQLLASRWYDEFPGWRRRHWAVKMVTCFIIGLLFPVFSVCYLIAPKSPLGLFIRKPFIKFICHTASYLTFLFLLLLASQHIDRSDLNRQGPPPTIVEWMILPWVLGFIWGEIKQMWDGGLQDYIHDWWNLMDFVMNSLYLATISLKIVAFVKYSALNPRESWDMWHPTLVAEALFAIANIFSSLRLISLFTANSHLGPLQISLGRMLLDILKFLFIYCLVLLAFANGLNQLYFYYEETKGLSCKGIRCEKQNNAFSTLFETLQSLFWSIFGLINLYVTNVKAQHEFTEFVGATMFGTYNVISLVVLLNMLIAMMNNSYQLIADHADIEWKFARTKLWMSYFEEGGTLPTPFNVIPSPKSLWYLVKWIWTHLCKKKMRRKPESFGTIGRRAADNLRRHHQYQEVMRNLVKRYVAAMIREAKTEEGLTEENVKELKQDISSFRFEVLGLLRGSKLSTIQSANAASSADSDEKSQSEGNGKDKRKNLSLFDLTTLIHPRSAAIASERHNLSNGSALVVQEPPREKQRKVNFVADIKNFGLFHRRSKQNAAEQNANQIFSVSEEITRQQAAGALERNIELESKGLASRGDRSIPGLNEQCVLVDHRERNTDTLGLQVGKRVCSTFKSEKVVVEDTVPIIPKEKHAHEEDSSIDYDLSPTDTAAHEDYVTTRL
# assay-procedure: blockers of DAMGO-evoked TRPC4 calcium flux – cell-based, Fluo4, HEK293 TRPC4beta/mu-opioid, confirmation (AID 2636)
# condition-info: at 10 µM
Activity calls are given as the source filed them.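 The calls were made as follows: active = calcium signal cut by more than 3 SD below the full-agonist control yet still positive, in both repeats and the earlier primary screen; inactive = the rest.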
Answer with one of the outcomes T for active, F for inactive

Example entries and their recorded answers appear below.
molecule=CN(Cc1ccccc1)C(=O)CSc1nnc(-c2ccco2)n1-c1ccccc1 discrete_label=T
molecule=CCCc1c(-c2ccc(O)cc2)nn(-c2ccc(O)cc2)c1-c1ccc(O)cc1 discrete_label=F
molecule=Cc1cc(Oc2ccc(C(C)(C)C)cc2)nc(N2CCOCC2)n1 discrete_label=F
molecule=Cn1c(C(=O)N[C@@H](C(=O)O)c2ccccc2)cc2cc(Cl)ccc21 discrete_label=F
molecule=CN1CCN(c2ccc(Cl)cc2NC(=O)/C=C/c2cccc(F)c2)CC1 discrete_label=F

input: Kindly provide the recorded test outcome for the following molecule: CSC1=NC2(CCCCC2)C2=C(CCCC2)N1
output: T

input: Kindly provide the recorded test outcome for the following molecule: c1ccc(Nc2c3c(nc4ccccc24)CCC3)cc1
output: F

input: Kindly provide the recorded test outcome for the following molecule: COCCn1c(SCc2ccc(OC)c(F)c2)nc2ccccc2c1=O
output: T

input: Kindly provide the recorded test outcome for the following molecule: Cc1ccc2cc(CN(CCN3CCOCC3)C(=O)NCc3ccccc3)c(=O)[nH]c2c1C
output: T

input: Kindly provide the recorded test outcome for the following molecule: Cc1ccc(NC(=O)c2cc(N3C(=O)C=CC3=O)ccc2N2CCOCC2)cc1Cl
output: F

input: Kindly provide the recorded test outcome for the following molecule: O=C1Nc2cc(C(=O)NCCCN3CCOCC3)ccc2S/C1=C/c1ccccc1F
output: F

input: Kindly provide the recorded test outcome for the following molecule: Cc1cc(OCCN2CCCCC2)nc2ccccc12
output: F

----------
# Tested on: TRPC4 beta (transient receptor potential cation channel C4), mouse
# assay-procedure: TRPC4 cation channel opening, retest – cell-based, Fluo4 calcium, HEK293 TRPC4beta/mu-opioid, duplicates, 10 µM, confirmation (AID 2426)
# condition-info: Fluo4 calcium fluorescence, at 10 µM
Activity calls are given as the source filed them.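 The calls were made as follows: active = fluorescence ratio normalized to control raised more than 50% in primary screen plus both repeat runs; inactive = the rest.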
Answer with one of the outcomes yes = active, no = inactive

compound="CC(C)Cn1c(CN2CCN(C)C(CCO)C2)nc2ccccc21 (centres undefined)" discrete_label=no
compound=CCN(CC)CCOCCOc1ccc(Cl)c2ccccc12 discrete_label=no
compound=COCCSc1ccccc1C(=O)N1CCC(Cc2ccccc2)CC1 discrete_label=no

Consider now this further compound.
input: Kindly provide the recorded test outcome for the following compound: COc1cccc2cc(C(N)=O)/c(=N\NC(=O)c3ccccc3)oc12
output: no

----------
# Test system: TRPC4 (mouse), co-expressed with 5HT1a in HEK293
# assay-procedure: enhancement of serotonin-evoked TRPC4 response – cell-based, second counter screen, HEK293 TRPC4/5HT1a, Fluo-4, counter-screen for TRPC4 potentiator project, confirmation (AID 434979)
# condition-info: Fluo-4 calcium flux, at 10 µM, serotonin added at its EC20 dose
The source made the active and inactive calls.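 Rule for the calls: active = signal rise over 3 SD above mean of control wells given weak agonist, in both repeats and first screen; inactive = the rest.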
Answer with one of the outcomes YES = active, NO = inactive

Example entries and their recorded answers appear below.
compound=NC(=O)c1ccc(Oc2ccc3c(c2)CCC3)c([N+](=O)[O-])c1 discrete_label=YES
compound=COc1ccc(-c2cc(C3CCN(c4cc(Cl)nc(N)n4)CC3)[nH]n2)cc1 discrete_label=YES

input: Kindly provide the recorded test outcome for the following compound: O=C(CSc1nnc(-c2ccc(Cl)cc2Cl)n1C1CCCCC1)NC1CCS(=O)(=O)C1 (stereo unspecified)
output: NO

input: Kindly provide the recorded test outcome for the following compound: Cc1ccn2cc(CCNC(=O)c3ccc(Br)o3)nc2c1
output: NO

input: Kindly provide the recorded test outcome for the following compound: COc1ccc(Nc2cc(C)nc3ccccc23)cc1
output: NO

input: Kindly provide the recorded test outcome for the following compound: Cc1cc(=O)oc2cc(NC(=S)NCc3ccccn3)ccc12
output: NO

input: Kindly provide the recorded test outcome for the following compound: OC(CNCC1CCCO1)Cn1c2ccc(Br)cc2c2cc(Br)ccc21 (stereo unspecified)
output: YES

input: Kindly provide the recorded test outcome for the following compound: O=C(c1coc2ccc(O)c(CN3CCOCC3)c12)C1CC1
output: NO

input: Kindly provide the recorded test outcome for the following compound: CCCn1c(N2CCN(S(=O)(=O)Cc3ccccc3)CC2)nc2ccccc21
output: YES

input: Kindly provide the recorded test outcome for the following compound: CN(C)CCCNc1c2ccccc2nc2ccccc12
output: NO

input: Kindly provide the recorded test outcome for the following compound: COc1ccc2nc(C)cc(NCc3ccc(F)cc3)c2c1
output: NO
